- Read-out: Matrix Metallopeptidase 1 (MMP1), MMP1 (gene 4312)
- TEST SUMMARY: BSK_BE3C_MMP1: BioMAP Diversity Plus: BE3C Assay for Matrix Metallopeptidase 1 (MMP1) Biomarker Activity (AID 2283024)
- CONDITION DETAILS: primary human bronchial epithelial cells; actives raise or lower the signal
Activity calls are given as the source filed them. Rule for the calls: active = hit-call score of the fitted dose curve at least 0.9, where 1 is the maximum; inactive = score below 0.9.
Hi! Could you answer with just one of these? True = active, False = inactive

Input: Answer briefly: the call reported for Nc1ccc([N+](=O)[O-])cc1O in this assay.
Output: False

Input: Name the outcome recorded for FC(F)(Br)C(F)(F)C(F)(F)C(F)(F)C(F)(F)C(F)(F)Br in the assay.
Output: False

Input: Identify the outcome logged in this assay for the compound shown: OCC(F)(F)C(F)(F)C(F)(F)C(F)F
Output: False

Input: Call for entry O[Si](c1ccccc1)(c1ccccc1)c1ccccc1 :
Output: False

Input: Given C=CC(F)(F)C(F)(F)C(F)(F)C(F)(F)C(F)(F)C(F)(F)C(F)(F)C(F)(F)C=C , state the outcome it received in this test.
Output: False

Input: Lab log entry: C#C[C@]1(O)CC[C@H]2[C@@H]3CCc4cc(OC)ccc4[C@H]3CC[C@@]21C — outcome as called in the assay?
Output: False

Input: Dear colleague, could you share the recorded outcome for CO[Si](OC)(c1ccccc1)c1ccccc1 when you have a moment?
Output: False

Input: Please indicate how the test categorized O=S(=O)(OCC(F)F)C(F)(F)F .
Output: False

Input: Which result was noted for this compound in the test: CCCCCCCCC(F)(F)C(F)(F)C(F)(F)C(F)(F)C(F)(F)C(F)(F)F
Output: False

Input: Hey, what did the test say about FC(F)(F)C(F)(F)C(F)(F)C(F)(F)C(F)(F)C(F)(F)CC1CO1 (stereo unspecified) ?
Output: False

Input: State the result this test recorded for CC(=O)Nc1ccc(N=Nc2cc(C)ccc2O)cc1 .
Output: True

Provenance of the data: PubChem BioAssay (EPA / NIEHS)
